assay: Counterscreen qHTS for small molecule stabilizers of the endoplasmic reticulum resident proteome: GLuc-NoTag assay (AID 1508627); settings: Gaussia luciferase NoTag secretion counterscreen, luminescence, thapsigargin 100 nM for final 4 h; series mostly up to 76.4 µM;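 also: SH-SY5Y cells given compound then 100 nM thapsigargin to empty ER calcium; 0% = thapsigargin alone and -100% = DMSO vehicle control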
Results filed as inconclusive are left out. Active and inactive are the calls of the source. Calls follow the shape of the dose curve; as a rule, active = well fitted inhibition curve with a large enough effect; inconclusive = small, poorly fitted or top-dose-only effect; inactive = no such curve, though single readings can be large or run the other way.
reported.property: outcome

c1cnc(N2CCC3(CCNCC3)CC2)nc1: inactive
c1ccc(N2CCC3(CCNCC3)CC2)nc1: inactive
c1ccc(N2CCCC3(CCNCC3)C2)nc1: inactive

---

test: Primary qHTS to identify inhibitors of SARS-CoV-2 cell entry (AID 1645846); conditions: SARS-CoV-2 pseudovirus cell entry assay, luminescence; at 57.1 µM (top of the series) unless noted; also: nearly all actives have a fitted effect of over 45% in size
Records with an inconclusive call do not appear.
Kindly supply the reported activity change, negative = inhibition values for the records listed here.
Record the value in %, omitting the unit from your answer.

Fill in: activity change, negative = inhibition of NC1CCCN(c2c(/C=C3\SC(=O)NC3=O)cccc2-c2ccccc2)C1 (stereo not given) is ___ -5.59

Please answer likewise for "C[C@H]1C[C@@H](n2c(Nc3ccc(OC(F)(F)F)cc3)nc3cc(CCC(=O)O)ccc32)CC(C)(C)C1" 2.52

Can you handle CC(=O)OC1CC(OC2C(O)CC(OC3C(O)CC(OC4CCC5(C)C(CCC6C5CCC5(C)C(C7=CC(=O)OC7)CCC65O)C4)OC3C)OC2C)OC(C)C1O (stereo not given) next? -96.7

And what about the compound "Cc1cc(Nc2ncc(Cl)c(Nc3ccccc3S(=O)(=O)C(C)C)n2)c(OC(C)C)cc1C1CCNCC1" ? -32

Also need "CCCCCCCCCCCCCCCCOc1nc2ccc(C)cc2c(=O)o1" , thanks. -28.4

For "CC1=C(c2ccc(O)cc2)[C@H](c2ccc(OCCN3CCCCC3)cc2)Oc2cc(O)ccc21" then? -47.4

Also O=C(Nc1ccc(-c2ccnc(Nc3ccc(N4CCOCC4)cc3)n2)cc1)C1CCCN1 (stereo not given) ? -3.33

Input "CC1(C)S[C@@H]2[C@H](NC(=O)COc3ccccc3)C(=O)N2[C@H]1C(=O)O" -8.38

Subsequent entry: Cc1c(N)nc(C(CC(N)=O)NCC(N)C(N)=O)nc1C(=O)NC(C(=O)NC(C)C(O)C(C)C(=O)NC(C(=O)NCCc1nc(-c2nc(C(=O)NCCCN[C@@H](C)c3ccccc3)cs2)cs1)C(C)O)C(O[C@@H]1O[C@@H](CO)[C@@H](O)[C@H](O)[C@@H]1O[C@H]1O[C@H](CO)[C@@H](O)[C@H](OC(N)=O)[C@@H]1O)c1cnc[nH]1 (stereo not given in full) -97.1

Same again, this time with "CCc1ccc(N(CC(C)C)S(=O)(=O)c2ccc(OCC3CCOCC3)c(CO)c2)cc1" -88.5

Entry to check: "CC(C)(C)C(=O)N1N=CC[C@H]1c1ccccc1" -3.46

Another compound: "CO[C@@H]1C[C@H](O[C@H]2[C@H](C)[C@H](O[C@@H]3O[C@@H](C)C[C@@H](N(C)C)[C@H]3OC(C)=O)[C@H](C)C[C@]3(CO3)C(=O)[C@H](C)[C@H](OC(C)=O)[C@H](C)[C@H](C)OC(=O)[C@@H]2C)O[C@H](C)[C@H]1OC(C)=O" -34.5

Another: CCCC(=O)O[C@]1(C(=O)COC(C)=O)CC[C@H]2C3C[C@H](F)C4=CC(=O)C=C[C@]4(C)[C@@]3(F)[C@@H](O)C[C@@]21C (stereo not given in full) -5.47

And the next one, "O=c1ccn([C@@H]2O[C@H](CO)[C@@H](O)[C@H]2O)c(=O)[nH]1" ? -16.1

Note, next up: "Cn1c(COP(=O)(NCCBr)NCCBr)cnc1[N+](=O)[O-]" -15

CC(OC(=O)OC1CCCCC1)OC(=O)C1=C(CSc2nnnn2CCN(C)C)CS[C@@H]2[C@H](NC(=O)Cc3csc(N)n3)C(=O)N12 (stereo not given in full) , same question. -37

Now the same for "COc1ccccc1C(=O)Nc1cc2c(cc1N1CCCC1)n(C)c(=O)n2C" -27

And for "COc1c(O)cc2c(c1O)[C@H]1O[C@@H](CO)[C@H](O)[C@@H](O)[C@@H]1OC2=O" ? -14.9

Thanks! And CCCCCCC(C)(C)c1cc(O)c2c(c1)OC(C)(C)C1CC=C(CO)C[C@H]21 (stereo not given in full) ? -8.86

Follow-up item: "CN[C@@H]1[C@@H](O[C@H]2O[C@H](CO)[C@@H](N)[C@H](O)[C@H]2O)O[C@H]2C[C@@H](N)[C@H](O[C@H]3[C@H](O)[C@@H](O)[C@H](N)C[C@@H]3N)O[C@@H]2[C@@H]1O" -26.5

Quick one: "COC(=O)c1ccccc1O" 3.44

// same read-out, input: "Cc1nc(NC(=O)N2CCC[C@H]2C(N)=O)sc1-c1ccnc(C(C)(C)C(F)(F)F)c1" -35.1

Consider next the compound "CC1=C(/C=C/C(C)=C/C=C/C(C)=C/C=C/C=C(C)/C=C/C=C(C)/C=C/C2=C(C)CCCC2(C)C)C(C)(C)CCC1" in the same way. -16.6

One more compound: Cc1cccc(C)c1NC(=O)C1CCCCN1C (stereo not given) -22.7

---

tested on: CP217; test: qHTS profiling for inhibitors of Plasmodium falciparum proliferation (AID 504749); also: nearly all actives have a fitted effect of over 60% in size; details: P. falciparum in erythrocytes, SYBR Green DNA, 72 h; series mostly up to 28.7 µM
Results filed as inconclusive are left out. The source made the active and inactive calls. Calls follow the shape of the dose curve; as a rule, active = well fitted inhibition curve with a large enough effect; inconclusive = small, poorly fitted or top-dose-only effect; inactive = flat fitted curve, though single readings scatter.
Bench note: report the call from 1.0 (active), 0.0 (inactive)

Record request — test call for "CO[C@@H](COC(N)=O)C1=C(N2CC2)C(=O)C(C)=C(N2CC2)C1=O" 1.0

Query "N[C@H]1C[C@H]1c1ccccc1" next 0.0

Field entry: "CC(C)N(CC[C@@](C(N)=O)(c1ccccc1)c1ccccn1)C(C)C" 0.0

// next record C[N+]1(C)[C@@H]2CC[C@H]1CC(OC(=O)[C@@H](CO)c1ccccc1)C2 (some centres not stated) 0.0

Same question, "CC(=O)OCC(=O)[C@@H]1CC[C@H]2[C@H]3CC[C@H]4C[C@@H](O)CC[C@]4(C)[C@@H]3C(=O)C[C@@]12C" this time 0.0

Would you mind doing C[C@]12CC[C@H](O)C[C@H]1CCC1C2CC[C@]2(C)[C@@H](c3ccc(=O)oc3)C[C@H]3O[C@]132 (some centres not stated) as well? 0.0

Next: CCCC[N+]1(C)C2CC(OC(=O)C(CO)c3ccccc3)CC1C1OC12 (configuration not stated) 0.0

---

experiment: Cell Viability - LYMP2-001 (AID 921); conditions: LYMP2-001 lymphoblastoid cell viability; series mostly up to 92.2 µM;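 also: cells exposed to compound for 24 h at 37 °C; nearly all actives have a fitted effect of over 70% in size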
Records with an inconclusive call do not appear. Activity calls are given as the source filed them. Calls come from the whole dose curve; as a rule, active = well fitted cell-killing curve with a large enough effect; inconclusive = small, poorly fitted or top-dose-only effect; inactive = no such curve, though single readings can be large or run the other way.
Assign a class; possible classes are label 1 for active, label 0 for inactive

Hi team, can someone confirm the assay call for "c1ccc(N=Nc2ccccc2)cc1" ? label 0

Thanks! And "CC(C)(C)OO" ? label 0

Same question for CC(O)CCl (stereo unspecified) please. label 0

Quick one: "CCSC(=O)Cl" label 0

Now consider "Cc1cccc(C#N)c1" and answer again. label 0

Cool, now "Nc1ccccc1Cl" label 0

Would you mind doing "Clc1ccc2ccccc2c1" as well? label 0

Try this compound too: "c1ccc(OP(Oc2ccccc2)Oc2ccccc2)cc1" label 0

Field entry: "CCCCOC(=O)c1ccccc1C(=O)OCCCC" label 0

What about "CC(=O)[O-].CC(=O)[O-].O.O.O.[Pb+2]" ? label 0

Now consider "N#CCCCl" and answer again. label 0

Also "Cc1cccc([N+](=O)[O-])c1" ? label 0

Also "Cc1ccccc1N" ? label 0

Next record, please: "Cc1ccc(O)c(C)c1" label 0

// same read-out, input: "COc1ccc(C=O)cc1OC" label 0

Same for "C=CC(N)=O" label 0

# iterate: "COC(=O)NC(=S)Nc1ccccc1NC(=S)NC(=O)OC" label 0

Param item: OCC1CO1 (stereo unspecified) label 0

Try this compound next: "Brc1ccccc1" label 0

Now consider "Clc1nc(Cl)nc(Cl)n1" . label 0

How about this compound: "CCN(CC)c1ccccc1" label 0

Subsequent entry: "Brc1ccc(Oc2cc(Br)c(Br)cc2Br)c(Br)c1" label 0

Now consider C=C(C)C(=O)OCC1CO1 (stereo unspecified) . label 0

Moving on to the next compound: "BrCCBr" label 0

Now give it for "Clc1cc(Cl)c(-c2cc(Cl)c(Cl)cc2Cl)cc1Cl" too. label 0

Try this compound too: OCC(Br)CBr (stereo unspecified) label 0

Could you do the same for ClC1=C(Cl)C2(Cl)C3C4C=CC(C4)C3C1(Cl)C2(Cl)Cl (stereo unspecified) , please? label 1

// next record "CC(C)(c1ccccc1)c1ccc(O)cc1" label 0

Note, next up: "Oc1ccc(Cl)cc1Cl" label 0

Consider next the compound "CC(C)(C)OOC(C)(C)C" in the same way. label 0

Lookup "COP(=S)(OC)Oc1ccc([N+](=O)[O-])cc1" label 0

Another compound to look at: "Cc1ccc2ccccc2c1" label 0

Proceed to "c1nc[nH]n1" label 0

Quick one: "[O-][Br+2]([O-])O" label 0

Can you check "C=CC(C)=O" next? label 0

Proceed to "Cc1ccc([N+](=O)[O-])cc1C" label 0
